System: Tyrosine-protein kinase ZAP-70 (Homo sapiens);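 further: values are mean percent inhibition of ZAP-70 kinase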
Test Parameters: at 0.1 µM
Measurement Label: inhibition (%)
Please respond with the number in % and leave the unit unwritten.

Fetch value of inhibition on Tyrosine-protein kinase ZAP-70 (Homo sapiens) for CNC(=O)c1sc(-n2cnc3cc(OC)c(OC)cc32)cc1OCc1ccccc1C(F)(F)F . -0.03

Fetch value of inhibition on Tyrosine-protein kinase ZAP-70 (Homo sapiens) for COc1ccc(Nc2ncc(-c3ccccc3)o2)cc1OC . 1.28

Fetch value of inhibition on Tyrosine-protein kinase ZAP-70 (Homo sapiens) for CCOc1ccc2c(-c3ccnc(Nc4cc(OC)cc(C(F)(F)F)c4)n3)cnn2n1 . 0.43

Fetch value of inhibition on Tyrosine-protein kinase ZAP-70 (Homo sapiens) for COc1ccccc1-c1cc(/C=C2\C(=O)Nc3ncc(Br)cc32)cc(Br)c1O . 2.43

Fetch value of inhibition on Tyrosine-protein kinase ZAP-70 (Homo sapiens) for COc1ccc(-c2nn3ncccc3c2-c2ccnc(Nc3ccc(F)c(F)c3)n2)cc1 . 2.54

Fetch value of inhibition on Tyrosine-protein kinase ZAP-70 (Homo sapiens) for Cc1c2ccc(N(C)c3ccnc(Nc4cccc(S(N)(=O)=O)c4)n3)cc2nn1C . 0.81

Fetch value of inhibition on Tyrosine-protein kinase ZAP-70 (Homo sapiens) for CN(C)CCNC(=O)Nc1ccc(N(C)c2ccnc(Nc3ccc(CS(C)(=O)=O)cc3)n2)cc1 . 1.7

Fetch value of inhibition on Tyrosine-protein kinase ZAP-70 (Homo sapiens) for N#Cc1ccc2c(-c3ccnc(NC4CC4)n3)c(-c3ccc(F)cc3)nn2c1 . -2.8

Fetch value of inhibition on Tyrosine-protein kinase ZAP-70 (Homo sapiens) for O=C(O[C@H]1CN[C@H](C#Cc2cc3ncnc(Nc4ccc5c(cnn5Cc5ccccc5)c4)c3s2)C1)N1CCOCC1 . -4.53

Fetch value of inhibition on Tyrosine-protein kinase ZAP-70 (Homo sapiens) for Cc1cc(O)cc(C)c1/C=C/c1cncc(C(N)=O)c1 . 2.11

Fetch value of inhibition on Tyrosine-protein kinase ZAP-70 (Homo sapiens) for CNC(=O)c1cncc(/C=C/c2ccccc2C)c1 . 1.58

====

System: Non-receptor tyrosine-protein kinase TYK2 (Homo sapiens) (UniProt P29597);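 further: values are mean percent inhibition of TYK2 kinase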
Sequence (P29597 whole entry): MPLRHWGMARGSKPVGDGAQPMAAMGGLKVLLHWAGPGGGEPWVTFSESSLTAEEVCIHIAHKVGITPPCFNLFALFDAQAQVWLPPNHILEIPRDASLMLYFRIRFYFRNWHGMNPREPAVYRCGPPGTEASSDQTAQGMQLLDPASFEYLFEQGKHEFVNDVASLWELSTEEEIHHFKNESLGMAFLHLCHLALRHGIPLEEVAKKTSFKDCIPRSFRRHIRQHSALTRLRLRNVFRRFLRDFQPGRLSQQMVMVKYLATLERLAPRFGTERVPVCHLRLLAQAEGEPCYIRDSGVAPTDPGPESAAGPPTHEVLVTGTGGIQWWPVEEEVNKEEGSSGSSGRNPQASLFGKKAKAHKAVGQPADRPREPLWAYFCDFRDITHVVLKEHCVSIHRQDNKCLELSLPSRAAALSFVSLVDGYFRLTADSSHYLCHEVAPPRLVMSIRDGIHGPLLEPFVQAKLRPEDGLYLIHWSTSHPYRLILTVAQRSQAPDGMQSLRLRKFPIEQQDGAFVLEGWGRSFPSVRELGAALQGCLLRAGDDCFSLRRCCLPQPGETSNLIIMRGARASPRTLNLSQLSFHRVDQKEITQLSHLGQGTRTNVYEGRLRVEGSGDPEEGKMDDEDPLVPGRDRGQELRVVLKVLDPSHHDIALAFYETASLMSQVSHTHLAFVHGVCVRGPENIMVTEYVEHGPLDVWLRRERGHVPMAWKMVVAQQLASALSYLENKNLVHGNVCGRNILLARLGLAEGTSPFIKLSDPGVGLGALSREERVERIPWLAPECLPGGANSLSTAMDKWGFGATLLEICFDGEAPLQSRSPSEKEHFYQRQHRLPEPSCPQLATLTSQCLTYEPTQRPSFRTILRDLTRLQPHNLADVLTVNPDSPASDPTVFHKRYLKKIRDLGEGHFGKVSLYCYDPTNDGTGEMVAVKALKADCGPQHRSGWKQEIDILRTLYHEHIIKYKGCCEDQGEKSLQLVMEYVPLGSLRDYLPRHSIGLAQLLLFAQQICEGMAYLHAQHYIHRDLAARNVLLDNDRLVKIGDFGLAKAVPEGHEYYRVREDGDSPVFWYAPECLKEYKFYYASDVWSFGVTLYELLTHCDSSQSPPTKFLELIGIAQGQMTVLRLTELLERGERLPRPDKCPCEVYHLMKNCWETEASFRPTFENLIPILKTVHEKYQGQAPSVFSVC
Test Parameters: at 1 µM
Hi there, I'd appreciate the recorded inhibition for every entry that follows.
Please respond with the number in % and leave the unit unwritten.

State its inhibition for this compound: CCS(=O)(=O)c1ccc(OC)c(Nc2ncc(-c3cccc(F)c3)o2)c1 -2.12

State its inhibition for this compound: Cn1c(-c2nonc2N)nc2cnccc21 -2.34

State its inhibition for this compound: CN(c1ccc(NC(=O)NCCN2CCOCC2)cc1)c1ccnc(Nc2ccc(CS(C)(=O)=O)cc2)n1 -0.59

State its inhibition for this compound: Cc1cc(O)cc(C)c1/C=C/c1cncc(C(=O)OC(C)(C)C)c1 -2.24

State its inhibition for this compound: CC1=C(C(=O)Nc2ccc3[nH]nc(C)c3c2)C(c2ccc(C(F)(F)F)cc2)CC(=O)N1 (stereo not given) 37.5

State its inhibition for this compound: CS(=O)(=O)CCNCc1ccoc1-c1ccc2ncnc(Nc3ccc(OCc4ccccc4)cc3)c2c1 0.15

State its inhibition for this compound: Cc1cc(O)cc(C)c1/C=C/c1cncc(C(N)=O)c1 -0.58

State its inhibition for this compound: CC(C)c1ccc(-c2cc(-c3c[nH]nc3-c3ccccn3)ccn2)cc1 -0.96

State its inhibition for this compound: COc1cc(N2CCN(C(C)C)CC2)ccc1Nc1nc(Nc2cccc3ncccc23)c2cc[nH]c2n1 2.42

State its inhibition for this compound: Cc1nnc(-c2cccc(-c3ccc(C(=O)NCC4CC4)cc3)c2)o1 -4.07

====

Hi there, I'd appreciate the recorded inhibition for every entry that follows.
System: Serine/threonine-protein kinase BRSK2 (Homo sapiens) (UniProt Q8IWQ3);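 further: values are mean inhibition of BRSK2 from the GSK PKIS screening dataset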
Sequence (Q8IWQ3 whole entry): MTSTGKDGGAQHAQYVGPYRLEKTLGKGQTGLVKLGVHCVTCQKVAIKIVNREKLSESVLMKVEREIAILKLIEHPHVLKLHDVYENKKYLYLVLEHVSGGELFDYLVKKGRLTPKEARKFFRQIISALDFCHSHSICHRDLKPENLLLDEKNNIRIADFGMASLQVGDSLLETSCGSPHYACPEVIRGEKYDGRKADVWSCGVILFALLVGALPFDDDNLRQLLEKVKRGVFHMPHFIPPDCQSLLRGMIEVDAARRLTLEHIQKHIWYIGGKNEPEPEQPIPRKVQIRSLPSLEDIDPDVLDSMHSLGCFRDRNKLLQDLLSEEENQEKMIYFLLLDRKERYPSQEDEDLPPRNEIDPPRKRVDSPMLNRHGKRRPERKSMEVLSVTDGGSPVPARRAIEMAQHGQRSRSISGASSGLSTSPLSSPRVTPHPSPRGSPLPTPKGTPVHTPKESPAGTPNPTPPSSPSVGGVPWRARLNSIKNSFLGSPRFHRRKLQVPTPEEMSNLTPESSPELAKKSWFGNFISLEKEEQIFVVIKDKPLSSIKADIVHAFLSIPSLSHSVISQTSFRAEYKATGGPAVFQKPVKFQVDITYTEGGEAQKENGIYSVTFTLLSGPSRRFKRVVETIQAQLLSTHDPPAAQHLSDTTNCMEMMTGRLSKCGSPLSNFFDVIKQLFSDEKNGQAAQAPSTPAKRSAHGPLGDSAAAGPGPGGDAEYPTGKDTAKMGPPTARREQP
Test Parameters: at 0.1 µM
Please respond with the number in % and leave the unit unwritten.

State its inhibition for this compound: N#Cc1cccc(Nc2ncc(-c3ccccc3)o2)c1 0.65

State its inhibition for this compound: CS(=O)(=O)CCNCc1ccc(-c2ccc3ncnc(Nc4ccc(OCc5cccc(C(F)(F)F)c5)cc4)c3c2)o1 4.95

State its inhibition for this compound: Fc1cccc(COc2ccc(Nc3ncncc3C#Cc3ccccc3)cc2Cl)c1 0.86

State its inhibition for this compound: CS(=O)(=O)Nc1ccc(-c2cc(-c3ccccc3)cc(C(N)=O)c2N)cc1 0.92

State its inhibition for this compound: O=C(Nc1n[nH]c2nnc(-c3cccnc3)cc12)C1CC1 0.35

State its inhibition for this compound: O=C(O[C@H]1CN[C@H](C#Cc2cc3ncnc(Nc4ccc5c(cnn5Cc5ccccc5)c4)c3s2)C1)N1CCOCC1 1.3

State its inhibition for this compound: Cc1c2ccc(N(C)c3ccnc(Nc4cccc(S(N)(=O)=O)c4)n3)cc2nn1C 1.95

State its inhibition for this compound: NS(=O)(=O)c1cccc(N/C=C2\C(=O)Nc3ccccc32)c1 5.23

State its inhibition for this compound: COc1cccc(Nc2nccc(-c3cnn4ncccc34)n2)c1 0.75

State its inhibition for this compound: CNC(=O)c1cncc(/C=C/c2ccccc2C)c1 3.54

====

Test system: Mast/stem cell growth factor receptor Kit (Homo sapiens), P10721 [V560G]
Sequence (P10721 whole entry V560G): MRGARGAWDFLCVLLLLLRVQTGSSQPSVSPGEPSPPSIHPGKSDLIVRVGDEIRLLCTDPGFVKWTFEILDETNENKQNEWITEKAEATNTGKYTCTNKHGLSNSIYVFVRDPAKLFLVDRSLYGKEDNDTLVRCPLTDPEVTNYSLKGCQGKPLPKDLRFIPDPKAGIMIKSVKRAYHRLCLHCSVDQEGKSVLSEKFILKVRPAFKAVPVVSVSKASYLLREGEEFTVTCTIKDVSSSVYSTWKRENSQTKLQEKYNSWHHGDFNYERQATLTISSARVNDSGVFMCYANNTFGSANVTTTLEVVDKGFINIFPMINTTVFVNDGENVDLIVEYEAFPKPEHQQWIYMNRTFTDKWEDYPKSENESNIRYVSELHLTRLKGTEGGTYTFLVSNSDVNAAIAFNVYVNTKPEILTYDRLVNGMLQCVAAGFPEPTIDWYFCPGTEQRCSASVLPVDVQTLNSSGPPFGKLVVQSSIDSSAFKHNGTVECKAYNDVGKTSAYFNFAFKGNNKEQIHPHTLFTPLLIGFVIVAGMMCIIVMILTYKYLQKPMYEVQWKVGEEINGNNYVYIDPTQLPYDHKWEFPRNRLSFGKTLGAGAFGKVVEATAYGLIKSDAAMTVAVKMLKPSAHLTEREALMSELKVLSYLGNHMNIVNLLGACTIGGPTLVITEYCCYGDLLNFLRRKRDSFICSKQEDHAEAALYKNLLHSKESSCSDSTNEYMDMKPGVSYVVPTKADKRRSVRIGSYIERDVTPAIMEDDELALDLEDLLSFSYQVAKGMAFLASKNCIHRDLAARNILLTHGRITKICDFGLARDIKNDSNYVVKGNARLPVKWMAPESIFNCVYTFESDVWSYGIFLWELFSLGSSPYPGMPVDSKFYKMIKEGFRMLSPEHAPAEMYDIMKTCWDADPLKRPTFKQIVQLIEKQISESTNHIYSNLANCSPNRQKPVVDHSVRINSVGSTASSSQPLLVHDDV
Test Parameters: at 1 µM
Hi there, I'd appreciate the recorded inhibition for every entry that follows.
Please respond with the number in % and leave the unit unwritten.

State its inhibition for this molecule: COC(=O)Nc1nc2ccc(Oc3ccc(NC(=O)Nc4cc(C(F)(F)F)ccc4F)cc3)cc2s1 73.7

State its inhibition for this molecule: O=C1Nc2ccccc2/C1=C1\CCc2cc(O)ccc21 41.6

State its inhibition for this molecule: NS(=O)(=O)c1cccc(N/C=C2\C(=O)Nc3ccccc32)c1 8.83

State its inhibition for this molecule: O=C(O[C@H]1CN[C@H](C#Cc2cc3ncnc(Nc4ccc(OCc5cccc(F)c5)c(Cl)c4)c3s2)C1)N1CCOCC1 -1.75

State its inhibition for this molecule: Cc1nnc(-c2cccc(-c3ccc(C(=O)NCC4CC4)cc3)c2)o1 2.8

State its inhibition for this molecule: COc1cc(Nc2ncc(-c3ccccc3)o2)cc(OC)c1 83.5

State its inhibition for this molecule: CS(=O)(=O)CCNCc1ccc(-c2ccc3ncnc(Nc4ccc(OCc5cccc(C(F)(F)F)c5)cc4)c3c2)o1 -2.24

State its inhibition for this molecule: Fc1cccc(COc2ccc(Nc3ncncc3C#Cc3ccccc3)cc2Cl)c1 -0.04

State its inhibition for this molecule: c1ccc(-c2n[nH]cc2-c2ccnc(-c3ccc(OCCn4ccnc4)cc3)c2)nc1 4.59

State its inhibition for this molecule: CNC(=O)c1cncc(/C=C/c2ccccc2C)c1 5.75

State its inhibition for this molecule: NS(=O)(=O)c1ccc(N/N=C2\C(=O)Nc3ccc(C(=O)NCc4ccncc4)cc32)cc1 10.7

State its inhibition for this molecule: COC(=O)Nc1nc2cc(Oc3ccc(NC(=O)Nc4ccccc4)cc3)ccc2[nH]1 67.9

State its inhibition for this molecule: CS(=O)(=O)CCNCc1ccc(-c2ccc3ncnc(Nc4ccc(OCc5ccccc5)cc4)c3c2)o1 1.48

State its inhibition for this molecule: CS(=O)(=O)CCNCc1ccoc1-c1ccc2ncnc(Nc3ccc(OCc4ccccc4)cc3)c2c1 3.57

State its inhibition for this molecule: COc1ccc2ncn(-c3cc(O[C@H](C)c4ccccc4C(F)(F)F)c(C(N)=O)s3)c2c1 2.83

State its inhibition for this molecule: CCOc1ccc2c(-c3ccnc(Nc4cc(OC)cc(C(F)(F)F)c4)n3)cnn2n1 5.97

State its inhibition for this molecule: c1cnn2ncc(-c3ccnc(NCCCN4CCOCC4)n3)c2c1 -1.13

State its inhibition for this molecule: OCCCNc1nccc(-c2c(-c3ccc(F)cc3)nn3cc(C(F)(F)F)ccc23)n1 -0.39

====

System: Serine/threonine-protein kinase Chk2 (Homo sapiens) (UniProt O96017);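 further: reported value is the mean inhibition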
Sequence (O96017 whole entry): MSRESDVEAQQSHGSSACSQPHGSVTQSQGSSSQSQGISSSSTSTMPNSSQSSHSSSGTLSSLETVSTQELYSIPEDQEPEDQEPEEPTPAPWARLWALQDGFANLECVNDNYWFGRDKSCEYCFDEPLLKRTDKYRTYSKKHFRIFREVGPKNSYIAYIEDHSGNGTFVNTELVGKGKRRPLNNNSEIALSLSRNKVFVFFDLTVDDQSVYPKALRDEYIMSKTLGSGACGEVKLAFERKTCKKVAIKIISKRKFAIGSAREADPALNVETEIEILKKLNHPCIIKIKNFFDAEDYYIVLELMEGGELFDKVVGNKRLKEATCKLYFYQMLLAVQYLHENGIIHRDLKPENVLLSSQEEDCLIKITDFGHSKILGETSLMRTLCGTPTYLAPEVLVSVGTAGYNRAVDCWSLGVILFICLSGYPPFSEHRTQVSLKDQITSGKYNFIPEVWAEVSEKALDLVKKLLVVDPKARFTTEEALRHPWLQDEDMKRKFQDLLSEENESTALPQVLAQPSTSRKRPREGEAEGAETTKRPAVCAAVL
Test Parameters: at 1 µM
Measurement Label: inhibition (%)
Please respond with the number in % and leave the unit unwritten.

Fetch value of inhibition on Serine/threonine-protein kinase Chk2 (Homo sapiens) (UniProt O96017) for CS(=O)(=O)Nc1ccc(-c2cc(-c3ccccc3)cc(C(N)=O)c2N)cc1 . 1.94

Fetch value of inhibition on Serine/threonine-protein kinase Chk2 (Homo sapiens) (UniProt O96017) for COc1cccc(Nc2nccc(-c3cnn4ncccc34)n2)c1 . 11.2

Fetch value of inhibition on Serine/threonine-protein kinase Chk2 (Homo sapiens) (UniProt O96017) for CCN1CCC(C(=O)Nc2n[nH]c3nnc(-c4cccc(F)c4F)cc23)CC1 . 0.65

Fetch value of inhibition on Serine/threonine-protein kinase Chk2 (Homo sapiens) (UniProt O96017) for O=C(O[C@H]1CN[C@H](C#Cc2cc3ncnc(Nc4ccc5c(cnn5Cc5ccccc5)c4)c3s2)C1)N1CCOCC1 . 0.86

Fetch value of inhibition on Serine/threonine-protein kinase Chk2 (Homo sapiens) (UniProt O96017) for O=C(O[C@H]1CN[C@H](C#Cc2cc3ncnc(Nc4ccc(OCc5cccc(F)c5)c(Cl)c4)c3s2)C1)N1CCOCC1 . 2.28

Fetch value of inhibition on Serine/threonine-protein kinase Chk2 (Homo sapiens) (UniProt O96017) for CCCNc1cccc(-n2ncc3c(N/N=C/c4ccncc4)ncnc32)c1 . 0.34

Fetch value of inhibition on Serine/threonine-protein kinase Chk2 (Homo sapiens) (UniProt O96017) for Cc1c2ccc(N(C)c3ccnc(Nc4cccc(S(N)(=O)=O)c4)n3)cc2nn1C . 7.22

Fetch value of inhibition on Serine/threonine-protein kinase Chk2 (Homo sapiens) (UniProt O96017) for Cc1cc(O)cc(C)c1/C=C/c1cncc(C(=O)OC(C)(C)C)c1 . 2.31

Fetch value of inhibition on Serine/threonine-protein kinase Chk2 (Homo sapiens) (UniProt O96017) for Cc1ccc(-c2cc3c(NC(=O)C4CC4)ncnc3o2)cc1 . 5.07

Fetch value of inhibition on Serine/threonine-protein kinase Chk2 (Homo sapiens) (UniProt O96017) for c1cnn2ncc(-c3ccnc(NCCCN4CCOCC4)n3)c2c1 . 3.47
